Tested on: SR leukemia
Assay: NCI-60 one-dose screen, 48 h
Conditions: 10 µM
The panel holds about 83,000 compounds, 20% with a hit somewhere; the sample as a whole holds those more often. Active and inactive are the calls of the source. How the source made its calls: active means growth percent below 10; inactive means the rest.
Possible outcomes: active, inactive

compound: COCCOCCOCCOc1ccc(-n2cc(-c3ccc(O[C@H]4O[C@@H]5OC6(C)CC[C@H]7[C@H](C)CC[C@@H]([C@H]4C)[C@@]57OO6)cc3)nn2)cc1
label: inactive
--
compound: C#CCCCN(CCNc1ccnc2cc(Cl)ccc12)C(=O)CCC(=O)O[C@@H]1O[C@@H]2OC3(C)CC[C@H]4[C@H](C)CC[C@@H]([C@H]1C)[C@@]24OO3
label: active
--
compound: O=C(NC([Se])=NC1CCCCC1)c1ccccc1
label: inactive
--
compound: O=C(/C=C/c1ccccc1)c1nc2ccccc2n1Cc1ccc(F)cc1
label: active
--
compound: CC12OOC(C)(OO1)C2CCC(=O)OCCNc1ccnc2cc(Cl)ccc12 (centres undefined)
label: active
--
compound: COP(=O)(CC(F)(F)C(F)(F)F)OC
label: active
--
compound: O=C(/C=C/c1ccco1)c1nc2ccccc2n1Cc1ccc(F)cc1
label: inactive
--
compound: C=CC[Se]C(=O)c1cncc(C(=O)[Se]CC=C)c1
label: active
--
compound: CCOC(=O)C1=C(Nc2ccccc2)C(=O)OC12C(=O)Nc1ccccc12 (centres undefined)
label: inactive
